molecular target: 5-HT1A receptor (Rattus norvegicus); construct: from tissue; host or cells: rat hippocampus membrane homogenates; experiment: Inhibition of [^3 H]-8-OH-DPAT binding to rat hippocampal membrane homogenates; conditions: against [^3 H]-8-OH-DPAT, rat hippocampus membranes; read-out: K1 (inhibition constant)
Sequence (P19327 whole entry): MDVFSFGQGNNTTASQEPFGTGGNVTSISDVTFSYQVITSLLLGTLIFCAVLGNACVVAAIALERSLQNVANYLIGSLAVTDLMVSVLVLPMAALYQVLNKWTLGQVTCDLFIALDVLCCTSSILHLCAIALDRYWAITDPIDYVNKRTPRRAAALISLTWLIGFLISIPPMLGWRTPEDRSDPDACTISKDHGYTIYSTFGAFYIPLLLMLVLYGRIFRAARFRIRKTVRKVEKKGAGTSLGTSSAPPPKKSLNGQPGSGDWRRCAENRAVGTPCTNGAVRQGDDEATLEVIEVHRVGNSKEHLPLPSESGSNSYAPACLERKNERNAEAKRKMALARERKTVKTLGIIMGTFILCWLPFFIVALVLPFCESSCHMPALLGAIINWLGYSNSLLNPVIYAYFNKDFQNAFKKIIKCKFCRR
pKi: −log10 of the molar value.
readout_name: pKi

{"compound": "Oc1cccc2c1CC(NC/C=C/I)CC2 (racemic) [(±)trans-8-OH-IPAT]", "readout_name": "pKi", "measured_value": 8.00}
{"compound": "CCCN(C/C=C/I)C1CCc2cccc(OC)c2C1 (mixture of isomers) [(±)trans-8-OMe-PIPAT]", "readout_name": "pKi", "measured_value": 7.90}

(1) COc1cccc2c1CC(NC/C=C/I)CC2 (racemic) [(±)trans-8-OMe-IPAT]
(2) CCCN(C/C=C/I)C1CCc2cccc(O)c2C1 (mixture of isomers) [(±)trans-8-OH-PIPAT]
Q) Which is greater in pKi, the first item 1 or the second item 2 ? Pick one and reply with its label.
A) 2

* * *

molecular target: D2 dopamine receptor (Rattus norvegicus, UniProt P61169); construct: made in house; host or cells: Sf9 insect cells infected with recombinant baculovirus (AcMNPVrD2L or AcMNPVrD2S), membrane homogenates; experiment: Inhibition of [^125 I]NCQ298 binding to D2 dopamine receptors expressed in Sf9 cells; conditions: Table 4; Hill coefficient
Sequence (P61169 whole entry): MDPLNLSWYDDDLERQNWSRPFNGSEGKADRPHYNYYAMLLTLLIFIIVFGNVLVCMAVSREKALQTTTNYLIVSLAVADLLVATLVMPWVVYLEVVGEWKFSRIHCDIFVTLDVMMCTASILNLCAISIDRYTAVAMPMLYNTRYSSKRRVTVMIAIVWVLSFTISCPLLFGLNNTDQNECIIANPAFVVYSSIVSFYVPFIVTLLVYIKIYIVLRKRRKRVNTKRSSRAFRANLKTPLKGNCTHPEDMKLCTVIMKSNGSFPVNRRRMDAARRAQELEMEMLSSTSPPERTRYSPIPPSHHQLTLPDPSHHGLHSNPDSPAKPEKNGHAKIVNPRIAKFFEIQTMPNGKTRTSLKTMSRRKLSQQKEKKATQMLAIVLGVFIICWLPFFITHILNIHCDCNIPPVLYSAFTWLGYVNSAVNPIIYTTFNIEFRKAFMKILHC
readout_name: HC D2

Before answering, review these 3 worked examples.
{"molecule": "CCCN(C/C=C/I)C1CCc2ccc(O)cc2C1 (stereo not drawn) [trans-7-OH-PIPAT]", "HC D2": 0.96}
{"molecule": "CCCN(CCC)C1CCc2ccc(O)c(I)c2C1 (stereo not shown) [8-I-7-OH-DPAT]", "HC D2": 0.92}
{"molecule": "C#CCN(CCC)C1CCc2ccc(O)cc2C1 (stereo not shown) [7-OH-PPAT]", "HC D2": 0.99}

(I) CCCN(C/C=C/I)C1CCc2ccc(OC)cc2C1 (stereo not shown) [7-MeO-PIPAT]
(II) Oc1ccc2c(c1)CC(NCc1ccccc1)CC2 (stereo not shown) [7-OH-BAT, 7Hydroxy-2-N-n-Benzylaminotetralin]
Q) Which is greater in HC D2, the first item I or the second item II ? Pick one and reply with its label.
A) I
(I: 1.22, II: 0.80)

* * *

test: In-vivo biodistribution in rats; design: species or system rat; details: rat, hypothalamus; 60 min; read-out: Regional uptake, Hypothalamus
readout_name: tissue uptake at 1 h (%ID/g)
Please reply with the bare figure in %ID/g and do not write the unit itself.

Reported tissue uptake at 1 h for CCCN(C/C=C/[123I])C1CCc2ccc(O)cc2C1 (stereo not shown) [[^123 I]-7-OH-PIPAT] was 0.254

* * *

experiment: In-vivo biodistribution in rats; set-up: species or system rat; conditions: rat, in vivo, 2 min; read-out: Regional uptake, Striatum
readout_name: tissue uptake at 2 min (%ID/g)
Please reply with the bare figure in %ID/g and do not write the unit itself.

Reported tissue uptake at 2 min for CCCN(CCC)C1CCc2ccc(O)c([123I])c2C1 (stereo not shown) [[^123 I]-7-OH-DPAT, reference compound] was 0.85

* * *

test: In-vivo biodistribution in rats; set-up: species or system rat; details: rat, cortex; 60 min; read-out: Regional uptake, Cortex
readout_name: tissue uptake at 1 h (%ID/g)
Please reply with the bare figure in %ID/g and do not write the unit itself.

Reported tissue uptake at 1 h for CCCN(C/C=C/[123I])C1CCc2ccc(O)cc2C1 (stereo not shown) [[^123 I]-7-OH-PIPAT] was 0.206

* * *

experiment: In-vivo biodistribution in rats; design: species or system rat; settings: rat, in vivo, 30 min; read-out: Regional uptake, Hippocampus
readout_name: tissue uptake at 0.5 h (%ID/g)
Please reply with the bare figure in %ID/g and do not write the unit itself.

Reported tissue uptake at 0.5 h for CCCN(CCC)C1CCc2ccc(O)c([123I])c2C1 (stereo not shown) [[^123 I]-7-OH-DPAT, reference compound] was 0.31

* * *

assay: In-vivo biodistribution in rats; parameters: species or system rat; settings: rat, cerebellum; 30 min; read-out: Regional uptake, Cerebellum
readout_name: tissue uptake at 0.5 h (%ID/g)
Please reply with the bare figure in %ID/g and do not write the unit itself.

Reported tissue uptake at 0.5 h for CCCN(C/C=C/[123I])C1CCc2ccc(O)cc2C1 (stereo not shown) [[^123 I]-7-OH-PIPAT] was 0.379

* * *

target: D3 dopamine receptor (Rattus norvegicus); construct: made in house; host or cells: Sf9 insect cells infected with recombinant baculovirus AcMNPVrD3, membrane homogenates; assay: Inhibition of [^125 I]NCQ298 binding to D3 dopamine receptors expressed in Sf9 cells; details: Table 4 and its discussion; Ki(D2)/Ki(D3)
Sequence (P19020 whole entry): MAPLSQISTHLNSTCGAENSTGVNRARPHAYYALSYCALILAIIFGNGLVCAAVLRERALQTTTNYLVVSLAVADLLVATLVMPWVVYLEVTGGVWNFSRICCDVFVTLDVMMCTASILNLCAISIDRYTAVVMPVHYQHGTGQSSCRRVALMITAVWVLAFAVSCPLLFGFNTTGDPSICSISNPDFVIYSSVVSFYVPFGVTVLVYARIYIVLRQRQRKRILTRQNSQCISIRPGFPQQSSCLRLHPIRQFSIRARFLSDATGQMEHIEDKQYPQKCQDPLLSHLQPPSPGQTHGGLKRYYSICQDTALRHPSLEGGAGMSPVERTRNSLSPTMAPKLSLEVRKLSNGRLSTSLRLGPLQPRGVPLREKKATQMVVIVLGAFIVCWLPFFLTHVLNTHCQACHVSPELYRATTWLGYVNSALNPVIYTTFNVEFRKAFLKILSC
readout_name: Ratio D2/D3

{"compound": "Oc1ccc2c(c1)CC(NCc1ccccc1)CC2 (centres unmarked) [7-OH-BAT, 7Hydroxy-2-N-n-Benzylaminotetralin]", "measured_value": 4.8}
{"compound": "CCCNC1CCc2ccc(O)cc2C1 (centres unmarked) [7-OH-MPAT, 7Hydroxy-2-N-n-Propylaminotetralin]", "measured_value": 191}
{"compound": "CCCN(CCC)C1CCc2ccc(O)c(I)c2C1 (centres unmarked)", "measured_value": 16.6}
{"compound": "C#CCN(CCC)C1CCc2ccc(O)cc2C1 (centres unmarked)", "measured_value": 41.1}
{"compound": "CCCNC1CCc2ccc(OC)cc2C1 (centres unmarked)", "measured_value": 4.0}

(P) CCCN(C/C=C/I)C1CCc2ccc(OC)cc2C1 (centres unmarked)
(Q) COc1ccc2c(c1)CC(NCc1ccccc1)CC2 (centres unmarked)
Q) Which is greater in Ratio D2/D3, the first item P or the second item Q ? Pick one and reply with its label.
A) P
(P: 5.4, Q: 3.1)

* * *

experiment: In-vivo biodistribution in rats; design: species or system rat; details: rat, cortex; 2 min; read-out: Regional uptake, Cortex
readout_name: tissue uptake at 2 min (%ID/g)
Please reply with the bare figure in %ID/g and do not write the unit itself.

Reported tissue uptake at 2 min for CCCN(C/C=C/[123I])C1CCc2ccc(O)cc2C1 (stereo not shown) [[^123 I]-7-OH-PIPAT] was 2

* * *

assay: In-vivo biodistribution in rats; set-up: species or system rat; details: rat, in vivo, 2 min; read-out: Regional uptake, Cerebellum
readout_name: tissue uptake at 2 min (%ID/g)
Please reply with the bare figure in %ID/g and do not write the unit itself.

Reported tissue uptake at 2 min for CCCN(CCC)C1CCc2ccc(O)c([123I])c2C1 (stereo not shown) [[^123 I]-7-OH-DPAT, reference compound] was 0.81

* * *

experiment: In-vivo biodistribution in rats; parameters: species or system rat; details: rat, in vivo, 30 min; read-out: Regional uptake, Cortex
readout_name: tissue uptake at 0.5 h (%ID/g)
Please reply with the bare figure in %ID/g and do not write the unit itself.

Reported tissue uptake at 0.5 h for CCCN(CCC)C1CCc2ccc(O)c([123I])c2C1 (stereo not shown) [[^123 I]-7-OH-DPAT, reference compound] was 0.29

* * *

Test: In-vivo biodistribution in rats
Design: species or system rat
Conditions: rat, striatum; 2 min; read-out: Regional uptake, Striatum
Procedure: In-vivo biodistribution studies were performed in rats^27 with the two hydroxylated radioligands: [^123 I]-7-OH-DPAT and [^123 I]-7-OH-PIPAT in rats. Concerning [^123 I]-7-OH-DPAT rats were killed either two minutes or thirty minutes post injection and the data are reported in Table 5. […] On the contrary, [^123 I]-7-OH-PIPAT presented a very high brain uptake: 11.812, 9,458 and 5.433% dose/gram of tissue at 2, 30 and 60 min. respectively (See Table 6). […]
readout_name: tissue uptake at 2 min (%ID/g)
Please reply with the bare figure in %ID/g and do not write the unit itself.

Reported tissue uptake at 2 min for CCCN(C/C=C/[123I])C1CCc2ccc(O)cc2C1 (stereo not shown) [[^123 I]-7-OH-PIPAT] was 1.62

* * *

target: D2 dopamine receptor (Rattus norvegicus); construct: made in house; host or cells: Sf9 insect cells infected with recombinant baculovirus (AcMNPVrD2L or AcMNPVrD2S), membrane homogenates; assay: Inhibition of [^125 I]NCQ298 binding to D2 dopamine receptors expressed in Sf9 cells; settings: Table 4; Hill coefficient
The following molecules are listed with their measured HC D2 values.
# respond with the number and nothing more

{"molecule": "COc1ccc2c(c1)CC(NCc1ccccc1)CC2 (centres unmarked) [7-MeO-BAT, 7Methoxy-2-N-Benzylaminotetralin]", "readout_name": "HC D2", "measured_value": 0.78}
{"molecule": "CCCNC1CCc2ccc(OC)cc2C1 (centres unmarked) [7-MeO-MPAT, 7Methoxy-2-N-n-Propylaminotetralin]", "readout_name": "HC D2", "measured_value": 0.96}
{"molecule": "CCCN(CCC)C1CCc2ccc(OC)cc2C1 (centres unmarked) [7-MeO-DPAT, 7Methoxy-2-N,N-n-Dipropylaminotetralin]", "readout_name": "HC D2", "measured_value": 0.95}
{"molecule": "CCCNC1CCc2ccc(O)cc2C1 (centres unmarked) [7-OH-MPAT, 7Hydroxy-2-N-n-Propylaminotetralin]", "readout_name": "HC D2", "measured_value": 0.80}

Let's switch to this molecule now.
Reported HC D2 for CCCN(CCC)C1CCc2ccc(O)cc2C1 (centres unmarked) [7-OH-DPAT, 7Hydroxy-2-N,N-n-Dipropylaminotetralin, reference compound] was 1.02
